The following binders are shown together with reported pIC50 values.
Assayed target: T1, human HER3-Fc (R&D Systems, 348-RB) (human, UniProt P21860 20-643)
T1 construct: Bought; also called hHER3-Fc; Fc-HER3; Fc part of the bought chimera not given, not described
Method summary: HRG competition alphascreen
pIC50: −log10 of the molar value.
Parameter: pIC50

binder="34C07 (VHH, c-myc, His6-tagged form as expressed; also called 34C7; HER3MS34C07) VHH: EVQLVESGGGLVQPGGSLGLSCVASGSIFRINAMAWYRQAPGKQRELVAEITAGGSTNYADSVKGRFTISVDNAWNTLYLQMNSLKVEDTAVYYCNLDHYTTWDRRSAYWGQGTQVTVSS" parameter=pIC50 measured_number=9.09
binder="04C07 (VHH, also called HER3MS04C07; HER3MS004C07) VHH: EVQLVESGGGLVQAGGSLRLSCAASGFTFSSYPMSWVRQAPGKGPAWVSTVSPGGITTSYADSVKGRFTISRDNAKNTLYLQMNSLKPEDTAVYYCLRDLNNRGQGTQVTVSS" parameter=pIC50 measured_number=9.58
binder="21F06 (VHH, c-myc, His6-tagged form as expressed; also called 21F6; HER3MS21F06) VHH: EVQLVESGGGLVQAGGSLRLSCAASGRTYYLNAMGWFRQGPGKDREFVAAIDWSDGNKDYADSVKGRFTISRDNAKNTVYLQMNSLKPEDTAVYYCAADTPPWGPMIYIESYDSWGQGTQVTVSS" parameter=pIC50 measured_number=10.87
binder="17B05 (VHH, also called HER3MS17B05; HER3MS017B05) VHH: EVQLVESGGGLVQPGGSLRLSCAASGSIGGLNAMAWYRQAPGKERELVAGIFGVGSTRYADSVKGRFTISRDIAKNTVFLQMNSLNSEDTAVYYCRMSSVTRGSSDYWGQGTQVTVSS" parameter=pIC50 measured_number=9.12
